Test system: IGROV1 ovarian
method-notes: NCI-60 one-dose screen, 48 h (100 = growth as untreated, 0 = no growth, -100 = all killed)
run-conditions: 10 µM unless noted
The panel holds about 83,000 compounds, 20% with a hit somewhere; the sample as a whole holds those more often. Calls of active or inactive are those of the source. Rule for the calls: active = growth percent below 10; inactive = the rest.
readout-type: growth

Please state, for each entry, its recorded growth.
1. COc1cc(/C=C/c2cc(/C=C/c3ccc(O)c(OC)c3)n(-c3ccc(Cl)cc3)c(=O)n2)ccc1O
2. C[C@H]1[C@@H]2[C@H]3CC[C@@H]4[C@@]5(C)Cc6c([nH]c7ccccc67)C(C)(C)[C@@H]5CC[C@@]4(C)[C@]3(C)CC[C@]23CO[C@]1(C)[C@@H](C(=O)/C=C/c1ccccn1)C3
3. c1ccc(C2Cc3ccccc3C2=NC2CCCCC2)cc1 (centres undefined)
4. CC(C)=CCC/C(C)=C/CC/C(C)=C/CSC[C@H](NC(=O)CCCCCN1CCN(C)CC1)C(=O)NC1CCCCCC1

Result:
1. 8.57% (active)
2. 106% (inactive)
3. 112% (inactive)
4. 69.8% (inactive)

---

Exercise: for every item that follows, state its recorded growth.
System: CAKI-1 renal
method-notes: NCI-60 one-dose screen, 48 h (100 = growth as untreated, 0 = no growth, -100 = all killed)
run-conditions: 10 µM unless noted
This is part of a sample that, as a whole, favours compounds with a hit. Of some 83,000 tested, about 20% had one in any assay.
One number for each entry, in %.

// worked examples, growth included
COc1ccc(OC)c(-c2c(C#N)c(-c3ccco3)nc3c2c(-c2ccccc2)nn3-c2ccccc2)c1 = 82.3
O=C(O[C@@H]1Cc2c(O)cc(O)cc2O[C@@H]1c1cc(O)c(O)c(O)c1)c1cc(O)c2c(c1)OCO2 = 94.4
O=C1/C(=C\c2ccc(Br)o2)SC(=S)N1CCc1ccc(O)cc1 = 27.8
NC1=NN(c2ccccc2)C(=O)/C1=C/c1ccc(Cl)cc1 = 97

Here is another compound to look at.
Ask: Give growth for "CCCCn1c(-c2ccc(O)cc2)cn2c3c(=O)[nH]c(=O)n(C)c3nc12"
Result: 86.6

---

Tested on: OVCAR-8 ovarian
method-notes: NCI-60 one-dose screen, 48 h
run-conditions: 10 µM unless noted
Compounds without any hit were thinned out: in the full panel of roughly 83,000, 20% have a hit. The source made the active and inactive calls. Rule for the calls: active = growth percent below 10; inactive = the rest.
Please state which outcome applies, choosing from Yes for active, No for inactive

These solved cases illustrate the format of a correct answer.
CC1c2ccccc2N(S(=O)(=O)c2ccccc2)C1C (stereo not given) = No
COc1c(N)c2c(c([N+](=O)[O-])c1OC)C(=O)OC2 = No

Ask: Just curious, what result did "C/C(=C(/c1ccccc1)c1ccc(N2C(=O)c3cccc4c(NCc5ccccc5)ccc(c34)C2=O)cc1)c1ccccc1" get here?
Result: No

Ask: Just curious, what result did Cc1ccc(NC2CC(=O)N(c3c(C)cc(C)cc3C)C2=O)c(C)c1 (stereo not given) get here?
Result: No

Ask: Just curious, what result did "CC(=O)n1c(/C(C#N)=C/c2ccc(N(C)C)cc2)cc2ccccc21" get here?
Result: No

Ask: Just curious, what result did "O=[N+]([O-])c1cccc(/C=N\Nc2ccccc2)c1" get here?
Result: No

Ask: Just curious, what result did "C=C(C)[C@@H]1CC[C@]2(CN)CC[C@]3(C)[C@H](CC[C@@H]4[C@@](C)(CCCN)[C@H](C(=C)C)CC[C@]43C)[C@@H]12" get here?
Result: No

Ask: Just curious, what result did "C[C@]12CC[C@@H]3c4ccc(O)cc4CC[C@H]3[C@@H]1C[C@H](O)[C@@H]2O" get here?
Result: No

Ask: Just curious, what result did "Cn1cc(-c2csc(-c3cn(CCCN4CCCCC4)c4ccc(Br)cc34)n2)c2cccnc21" get here?
Result: Yes

Ask: Just curious, what result did Nc1c2c(nc3ccc(Br)cc13)CC(c1ccccc1)CC2=O (stereo not given) get here?
Result: No

Data provenance: PubChem BioAssay (NCI)
